# Test system: Wolbachia pipientis
# Protocol Details: Anti-Wolbachia Cell-Based Screen
# Type: functional
# Design: scale not given: in the data most compounds retested in dose-response had high values
# Condition Info: 5 µM
The whole screen tested about 48,000 compounds, of which about 13,000 (27%) showed an effect of 50% or more. The list shows a part of the results.
Measurement Name: Percent Effect (%)
Only the number, expressed in %, is required.

Note to self: Percent Effect recorded for CCOc1ncccc1NC(=O)NC1CCN(c2ncccn2)CC1 was 128.6

Note to self: Percent Effect recorded for CCOc1ncccc1C(=O)NC1CC(=O)N(CC(F)(F)F)C1 (stereo unspecified) was -4.406

Note to self: Percent Effect recorded for CCCc1nccn1-c1ccc(C(C)O)cc1 (stereo unspecified) was -9.636

Note to self: Percent Effect recorded for O=C(CN1CC(c2nc(C3CC3)no2)C1)NCC1CCCO1.O=C(O)C(=O)O (stereo unspecified) was 11.2

Note to self: Percent Effect recorded for CN(C)S(=O)(=O)NC(=O)CC(c1ccccc1)C(F)(F)F (stereo unspecified) was -3.128

Note to self: Percent Effect recorded for CCOCc1ccccc1NC(=O)NC1CCN(c2ncccn2)CC1 was 3.518
